Biological target: GOPC, Q9HD26
Assay: holdup assay
Design: key: below the threshold = too weak to quantify, mostly under pKd 3.1 to 4
Conditions: plain residues with an end cap or a label only (N-terminal biotin on a linker: ado-ado)
Observation Type: pKd

As a guide, the following entries are already answered.
| Binder | pKd |
| --- | --- |
| MHIQEKGFHV [EPHA6, Q9UF33] | below the threshold |
| KSRVAFFEEL [NF2, P35240] | 3.63 |
| SVTSERETNI [SLC16A7, O60669] | below the threshold |
| QRPYRRGSEI [KCNJ18, B7U540] | below the threshold |

Query: State the recorded pKd for this entry: NISYRRESAI [KCNJ4, P48050]
Response: below the threshold
